tested_on: AGTR1 (Homo sapiens, UniProt P30556)
Construct: host or cells: Pathunter CHO-K1 AGTR1 β-arrestin cell line (CHO-K1)
Sequence (P30556 1-359): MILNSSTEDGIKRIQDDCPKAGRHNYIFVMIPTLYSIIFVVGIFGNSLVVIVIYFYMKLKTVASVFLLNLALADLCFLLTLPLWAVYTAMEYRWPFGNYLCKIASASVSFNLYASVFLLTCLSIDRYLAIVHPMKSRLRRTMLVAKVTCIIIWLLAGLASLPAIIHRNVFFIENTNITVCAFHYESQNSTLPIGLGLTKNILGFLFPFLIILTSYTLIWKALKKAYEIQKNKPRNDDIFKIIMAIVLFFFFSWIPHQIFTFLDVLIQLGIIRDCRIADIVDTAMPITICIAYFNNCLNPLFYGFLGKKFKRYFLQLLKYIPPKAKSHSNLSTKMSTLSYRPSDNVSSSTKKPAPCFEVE
assay_text: DiscoveRx β-arrestin2 recruitment assay (enzyme complementation, Pathunter CHO-K1 AGTR1 β-arrestin cell line)
Type: cell-based
particulars: DiscoveRx β-arrestin2 recruitment
value_type: pEC50
Conceptually, pEC50 converts a concentration in mol/L into minus its log10.

# example entries with known answers
{"columns": ["molecule", "assay_value"],
 "data": [
  ["CCc1nc2c(C)cc(C)nc2n1Cc1cnc(-c2cc(-c3cccc(C)c3)ccc2-c2nnn[nH]2)nc1 [Example 197]", 6.55],
  ["CCCc1nc(CC)c(C(=O)O)n1Cc1ccc(-c2cc(-c3ccccc3)ccc2-c2noc(=O)[nH]2)cc1 [Example 399]", 7.87]
]}

Next up:
Problem: Give reported pEC50 value for CCc1nc2c(C)cc(C)nc2n1Cc1ccc(-c2cc(-c3ccccc3)ccc2C(=O)NS(C)(=O)=O)cc1 [Example 244]
Result: 7.02

Where do these numbers come from? They come from patent US12037324B2.
